# target: CDK4/CCND3 (Homo sapiens, UniProt P11802)
# Sequence (P11802 whole entry): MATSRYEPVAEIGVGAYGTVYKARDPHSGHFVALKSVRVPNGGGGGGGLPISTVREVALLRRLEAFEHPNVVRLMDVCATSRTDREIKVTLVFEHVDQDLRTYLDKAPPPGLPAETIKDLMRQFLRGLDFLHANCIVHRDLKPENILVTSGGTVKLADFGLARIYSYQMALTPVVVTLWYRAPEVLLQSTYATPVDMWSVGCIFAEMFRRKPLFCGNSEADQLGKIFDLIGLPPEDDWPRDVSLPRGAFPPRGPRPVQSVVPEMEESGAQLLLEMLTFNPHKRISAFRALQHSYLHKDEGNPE
# Sequence (P30281 whole entry partner): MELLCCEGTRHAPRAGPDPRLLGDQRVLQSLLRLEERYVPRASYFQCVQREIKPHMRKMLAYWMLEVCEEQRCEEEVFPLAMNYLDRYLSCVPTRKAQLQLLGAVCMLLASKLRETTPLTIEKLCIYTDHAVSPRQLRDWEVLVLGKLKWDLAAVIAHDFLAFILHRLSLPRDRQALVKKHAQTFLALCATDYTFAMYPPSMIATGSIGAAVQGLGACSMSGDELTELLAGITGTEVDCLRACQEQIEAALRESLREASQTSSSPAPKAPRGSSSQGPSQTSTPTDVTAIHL
# assay.summary: CDK4 homogeneous time-resolved fluorescence (HTRF) kinase assay
# Type: biochemical
# reported.conditions: CDK4/CCND; >250 nM marked x; read-out: CDK4/CCND IC50 >250 nM
Property: IC50; scope: individual compounds
measure.name: IC50

- compound: "CCC1(CC)C(=O)Nc2cc(C#Cc3nccc4cnc(Nc5ccc(S(=N)(=O)C6CC6)cc5OC)cc34)ccc21 (single isomer, unassigned)"
  result: "> 250 nM"
- compound: "CS(=O)(=O)c1ccc(Nc2cc3c(ccnc3[C@H]3CC[C@H](C(=O)Nc4ccccc4)CC3)cn2)cc1"
  result: "> 250 nM"
- compound: "COc1cc(S(C)(=N)=O)ccc1Nc1cc2c(C#Cc3ccc4c(c3)NC(=O)C43CCC3)nccc2cn1 (single isomer, unassigned)"
  result: "> 250 nM"

---

Each entry below carries its recorded IC50.
# target: CDK2/CCNE1 (Homo sapiens, UniProt P24941)
# assay.summary: CDK2 homogeneous time-resolved fluorescence (HTRF) kinase assay
# Assay type: biochemical
# reported.conditions: CDK2/CCNE; 25-250 nM marked x; read-out: CDK2/CCNE IC50 25-250 nM
measure.name: IC50

- compound: "CCC1(CC)C(=O)Nc2cc(C#Cc3nccc4cnc(Nc5ccc(S(=O)(=O)C(C)C)cc5OC)cc34)ccc21"
  measure.name: "IC50"
  result: "0.025 to 0.25 µM"
- compound: "CN1CCC(c2nccc3cnc(Nc4ccc(S(C)(=O)=O)cc4)cc23)CC1"
  measure.name: "IC50"
  result: "0.025 to 0.25 µM"
- compound: "CS(=O)(=O)N1CCC(Nc2cc3c(N(CO)Cc4ccccc4)nccc3cn2)CC1"
  measure.name: "IC50"
  result: "0.025 to 0.25 µM"
- compound: "CS(=O)(=O)c1ccc(Nc2cc3c(C#Cc4ccc(C#N)cc4)nccc3cn2)cc1"
  measure.name: "IC50"
  result: "0.025 to 0.25 µM"
- compound: "Cc1c(-c2nccc3cnc(Nc4ccc(S(C)(=O)=O)cc4)cc23)ccc2nn(CCC#N)cc12"
  measure.name: "IC50"
  result: "0.025 to 0.25 µM"
- compound: "CCC1(CC)C(=O)Nc2cc(C#Cc3nccc4cnc(Nc5ccc(S(=N)(=O)C6CC6)cc5OC)cc34)ccc21 (single isomer, unassigned)"
  measure.name: "IC50"
  result: "0.025 to 0.25 µM"
- compound: "COc1c(-c2nccc3cnc(Nc4ccc(S(C)(=O)=O)cc4)cc23)ccc2[nH]ncc12"
  measure.name: "IC50"
  result: "0.025 to 0.25 µM"
- compound: "CN(c1nccc2cnc(NC3CCN(S(C)(=O)=O)CC3)cc12)C1CC1"
  measure.name: "IC50"
  result: "0.025 to 0.25 µM"
- compound: "N#CC1CCN(c2nccc3cnc(Nc4ccc(CO)cc4)cc23)CC1"
  measure.name: "IC50"
  result: "0.025 to 0.25 µM"
- compound: "Cc1nc(-c2nccc3cnc(Nc4ccc(S(C)(=O)=O)cc4)cc23)no1"
  measure.name: "IC50"
  result: "0.025 to 0.25 µM"
- compound: "CN1CCC(C2CCN(c3nccc4cnc(NC5CCN(S(C)(=O)=O)CC5)cc34)CC2)CC1"
  measure.name: "IC50"
  result: "0.025 to 0.25 µM"
- compound: "N#CC1CCN(c2nccc3cnc(Nc4cccc(C=O)c4)cc23)CC1"
  measure.name: "IC50"
  result: "0.025 to 0.25 µM"
- compound: "CC1(C#N)CCN(c2nccc3cnc(NC4CCN(S(C)(=O)=O)CC4)cc23)CC1"
  measure.name: "IC50"
  result: "0.025 to 0.25 µM"
- compound: "CN(Cc1ccccc1)C1CCN(c2nccc3cnc(NC4CCN(S(C)(=O)=O)CC4)cc23)CC1"
  measure.name: "IC50"
  result: "0.025 to 0.25 µM"
- compound: "N#CC1CCN(c2nccc3cnc(Nc4ccc(O)c(CO)c4)cc23)CC1"
  measure.name: "IC50"
  result: "0.025 to 0.25 µM"
- compound: "C=CS(=O)(=O)c1ccc(Nc2cc3c(-c4ccc5[nH]ncc5c4C)nccc3cn2)cc1"
  measure.name: "IC50"
  result: "0.025 to 0.25 µM"
- compound: "Cc1c(-c2nccc3cnc(Nc4ccc(S(C)(=O)=O)cc4)cc23)ccc2nn(CC3CNC3)cc12"
  measure.name: "IC50"
  result: "0.025 to 0.25 µM"
- compound: "N#CC1CCN(c2nccc3cnc(Nc4cccc(CCO)c4)cc23)CC1"
  measure.name: "IC50"
  result: "0.025 to 0.25 µM"
- compound: "CS(=O)(=O)c1ccc(Nc2cc3c(C4CCCC(=O)C4)nccc3cn2)cc1 (racemic)"
  measure.name: "IC50"
  result: "0.025 to 0.25 µM"
- compound: "CS(=O)(=O)N1CCC(Nc2cc3c(-c4ccc(N5CCOCC5)cc4)nccc3cn2)CC1"
  measure.name: "IC50"
  result: "0.025 to 0.25 µM"
- compound: "CS(=O)(=O)c1ccc(Nc2cc3c(C#C[C@H]4CC[C@H](N)CC4)nccc3cn2)cc1"
  measure.name: "IC50"
  result: "0.025 to 0.25 µM"
- compound: "COCCNC(=O)[C@H]1CC[C@H](c2nccc3cnc(Nc4ccc(S(C)(=O)=O)cc4)cc32)CC1"
  measure.name: "IC50"
  result: "0.025 to 0.25 µM"
- compound: "CS(=O)(=O)N1CCC(Nc2cc3c(N4CC(O)C4)nccc3cn2)CC1"
  measure.name: "IC50"
  result: "0.025 to 0.25 µM"
- compound: "CS(=O)(=O)N1CCC(Nc2cc3c(-c4ccccn4)nccc3cn2)CC1"
  measure.name: "IC50"
  result: "0.025 to 0.25 µM"
- compound: "Cc1c(-c2nccc3cnc(Nc4ccc(S(C)(=O)=O)cc4)cc23)ccc2c1cnn2CCC#N"
  measure.name: "IC50"
  result: "0.025 to 0.25 µM"
- compound: "C=CS(=O)(=O)c1ccc(Nc2cc3c(N4CC(C#N)C4)nccc3cn2)cc1"
  measure.name: "IC50"
  result: "0.025 to 0.25 µM"
- compound: "C=CS(=O)(=O)c1ccc(Nc2cc3c(-c4cccc(C(F)(F)F)c4)nccc3cn2)cc1"
  measure.name: "IC50"
  result: "0.025 to 0.25 µM"
- compound: "CS(=O)(=O)c1ccc(Nc2cc3c(C4CCC(O)CC4)nccc3cn2)cc1 (racemic)"
  measure.name: "IC50"
  result: "0.025 to 0.25 µM"
- compound: "Cc1c(-c2nccc3cnc(Nc4ccc(S(C)(=O)=O)cc4)cc23)ccc2c1cnn2CCC1CNC1"
  measure.name: "IC50"
  result: "0.025 to 0.25 µM"
- compound: "C=CS(=O)(=O)c1ccc(Nc2cc3c(C#Cc4ccc(C#N)cc4)nccc3cn2)cc1"
  measure.name: "IC50"
  result: "0.025 to 0.25 µM"
- compound: "CCC1(CC)C(=O)Nc2cc(C#Cc3nccc4cnc(Nc5ccc(S(=O)(=O)CC(F)(F)F)cc5C)cc34)ccc21"
  measure.name: "IC50"
  result: "0.025 to 0.25 µM"
- compound: "CS(=O)(=O)c1ccc(Nc2cc3c(N4CCC(C#N)CC4)nccc3cn2)cc1"
  measure.name: "IC50"
  result: "0.025 to 0.25 µM"
- compound: "CS(=O)(=O)c1ccc(Nc2cc3c(N4CCCCC4)nc(C=O)cc3cn2)cc1"
  measure.name: "IC50"
  result: "0.025 to 0.25 µM"
- compound: "C=CS(=O)(=O)N1CCC(Nc2cc3c(-c4ccc(C#N)nc4)nccc3cn2)CC1"
  measure.name: "IC50"
  result: "0.025 to 0.25 µM"
